These entries and their values trace back to ChEMBL document CHEMBL1149918.

target: Gastrin/cholecystokinin type B receptor (Rattus norvegicus) (UniProt P30553); test: Tested for selectivity toward gastrin receptor by the ability to block pentagastrin stimulated acid secretion from isolated rat gastric mucosa (RGM); format: tissue-based
Sequence (P30553 whole entry): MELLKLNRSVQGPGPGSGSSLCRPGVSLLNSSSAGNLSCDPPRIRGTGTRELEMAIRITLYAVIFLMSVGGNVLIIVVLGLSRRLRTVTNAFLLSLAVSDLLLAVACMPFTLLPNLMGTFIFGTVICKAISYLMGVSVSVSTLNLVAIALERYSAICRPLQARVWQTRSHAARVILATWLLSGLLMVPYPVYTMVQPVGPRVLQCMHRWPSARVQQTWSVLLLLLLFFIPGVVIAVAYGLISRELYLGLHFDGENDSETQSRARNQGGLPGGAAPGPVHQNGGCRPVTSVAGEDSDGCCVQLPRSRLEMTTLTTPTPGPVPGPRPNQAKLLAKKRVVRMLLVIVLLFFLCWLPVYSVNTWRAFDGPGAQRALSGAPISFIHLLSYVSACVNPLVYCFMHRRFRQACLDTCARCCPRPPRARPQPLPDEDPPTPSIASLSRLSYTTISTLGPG
measured-quantity: pKB
Give the figure only, with no unit attached.

O=C(Nc1cccc(C(=O)O)c1)NC1C(=O)N(CC(=O)N2CCCC2)c2ccccc2N(c2ccccc2)C1=O (centres undefined) :: 8.6

I'd like to know its pKB. The compound in question is O=C(Nc1cccc(C2N=NN=N2)c1)NC1C(=O)N(CC(=O)N2CCCC2)c2ccccc2N(c2ccccc2)C1=O (centres undefined)
10.3

I'd like to know its pKB. The compound in question is O=C(Nc1ccccc1)NC1C(=O)N(CC(=O)N2CCCC2)c2ccccc2N(c2ccccc2)C1=O (centres undefined)
8.5

I'd like to know its pKB. The compound in question is O=C(Nc1ccc(F)cc1)NC1C(=O)N(CC(=O)N2CCCC2)c2ccccc2N(c2ccccc2F)C1=O (centres undefined)
8.6
